Where these numbers come from: PubChem BioAssay

Please go through the items and note down their z-score.
- experiment summary: basal RPMI8226 viability, no added stimulus, profiling panel, cell-based, calcein-AM fluorescence, 48 h, PK04 Diversity Set (AID 1166);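 also: cells grown under basal conditions without added stimulus; test concentration not given here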
- cond: RPMI8226 myeloma viability, higher = more signal
Numbers only.

Worked cases, z-score given:
CCCC[C@@H](O)C1=C(C)Cn2c(=O)n(-c3ccccc3)c(=O)n2[C@H]1CO    0.617
COc1ccc([Si](C)(C)[C@H]2[C@H](CCO)O[C@@]3(C(=O)N(Cc4ccccc4)c4ccc(NC(=O)[C@H](C)O)cc43)[C@@H]2C)cc1    -4.31
O=C1O[C@@H](c2ccccc2)[C@@H](c2ccccc2)N2[C@@H](c3ccccc3OCCO)[C@]3(C(=O)Nc4ccc(C#CC5(O)CCCCCC5)cc43)[C@@H](C(=O)N3CCCCCCC3)[C@H]12    -2.59
C=CCOC(=O)[C@@H]1[C@H]2C(=O)O[C@H](c3ccccc3)[C@H](c3ccccc3)N2[C@H](c2ccc(OCCOC(=O)[C@H]3C[C@H]4C(=O)N[C@@H](CCCCN(C)C)C(=O)N4[C@H]3c3cccc(OCCO)c3)cc2)[C@@]12C(=O)Nc1ccccc12    -2.17
CC(C)C[C@@H]1NC(=O)[C@@H]2C[C@H](C(=O)NCCCCCCNC(=O)CS)[C@H](c3ccc(O)cc3)N2C1=O    0.037

Now for another entry.
Q) Please give the measured z-score for this compound: `CC(C)C[C@@H]1NC(=O)[C@@H]2C[C@H](C(=O)NCCCCCNC(=O)CS)[C@H](c3ccc(O)cc3)N2C1=O`
A) -0.782
